Every entry's value here was drawn from patent US20220251105A1.

Experiment: toxicokinetics, 28-day monkey study
Assay type: in vivo, cynomolgus monkey
Conditions: male, cynomolgus, cynomolgus monkey, plasma, po, 15 mg/kg/day, monkey, Study Day 21, male, 15 mg/kg/day (so in the source); read-out: AUCLST
ASSAY_METRIC: AUC (ng·h/mL)
Express the result in ng·h/mL but write the number alone.

Which AUC reading was recorded for the compound "CCOCc1cnc(Cl)nc1Oc1ccc2c(ccc3sc4c(c32)NC[C@@H](C)NC4=O)n1" ?
1280

###

Assay: single intravenous dose pharmacokinetics in Sprague Dawley rats
Format: in vivo
Details: plasma, rat, male, single IV 5 mg/kg
ASSAY_METRIC: clearance (mL/min/kg)
Respond with the bare value in mL/min/kg.

Value lookup for clearance; key = CCOCc1cnc(Cl)nc1Oc1ccc2c(ccc3sc4c(c32)NC[C@@H](C)NC4=O)n1 [Compound 1]
42.2

###

Experiment: single oral dose pharmacokinetics in cynomolgus monkeys
Format: in vivo, cynomolgus monkey
Settings: cynomolgus monkey, plasma; monkey, female, single oral 150 mg/kg
ASSAY_METRIC: Cmax (ng/mL)
Field: numeric (ng/mL). Do not append units.

So what does the record say about Cmax for CCOCc1cnc(Cl)nc1Oc1ccc2c(ccc3sc4c(c32)NC[C@@H](C)NC4=O)n1 [Compound 1] ?
1200

###

Experiment: single oral dose pharmacokinetics in cynomolgus monkeys
Type: in vivo, cynomolgus monkey
Conditions: cynomolgus monkey, plasma; monkey, male, single oral 375 mg/kg
Description: In vitro and in vivo studies were conducted to characterize the absorption, PK, distribution, and metabolism of Compound 1. […] Additionally, plasma samples from single dose PK studies in mice and monkeys were evaluated for circulating metabolites.
ASSAY_METRIC: AUC(0-inf) (ng·h/mL)
Give your result in ng·h/mL as a bare value.

Can you look up the measured AUC(0-inf) of "CCOCc1cnc(Cl)nc1Oc1ccc2c(ccc3sc4c(c32)NC[C@@H](C)NC4=O)n1" for me?
14000

###

Assay: toxicokinetics, 28-day mouse study
Format: in vivo
Conditions: male, Crl:CD1 (ICR), mouse, plasma, po, 100 mg/kg/day, mice, Study Day 21, male, 100 mg/kg/day
ASSAY_METRIC: Cmax (ng/mL)
Express it in ng/mL; write the number only.

Requested field: Cmax. Item: "CCOCc1cnc(Cl)nc1Oc1ccc2c(ccc3sc4c(c32)NC[C@@H](C)NC4=O)n1"
11700

###

Experiment: Phase 1 first in human study, pharmacokinetics
Type: in vivo
Details: human, in vivo, oral; humans, 150 mg; read-out: observed AUCLST
ASSAY_METRIC: AUC (ng·h/mL)
Form entry: value (ng·h/mL) — number only.

For "CCOCc1cnc(Cl)nc1Oc1ccc2c(ccc3sc4c(c32)NC[C@@H](C)NC4=O)n1" , what is its reported AUC?
1360

###

Experiment: toxicokinetics, 28-day monkey study
Format: in vivo, cynomolgus monkey
Conditions: female, cynomolgus monkey, plasma, po, 150 mg/kg/day, monkey, Study Day 1, female, 150 mg/kg/day; read-out: AUCLST
ASSAY_METRIC: AUC
Kindly report the value followed by its unit.

What does the data say about its AUC? Entry: "CCOCc1cnc(Cl)nc1Oc1ccc2c(ccc3sc4c(c32)NC[C@@H](C)NC4=O)n1"
6330 ng·h/mL

###

Test: single intravenous dose pharmacokinetics in Sprague Dawley rats
Format: in vivo
Settings: both sexes, rat, plasma, iv, 5 mg/kg, rats, read-out: terminal half-life
ASSAY_METRIC: half-life

Query: half-life; subject: "CCOCc1cnc(Cl)nc1Oc1ccc2c(ccc3sc4c(c32)NC[C@@H](C)NC4=O)n1"
≤ 1 h
